# ASSAYED TARGET: cell-surface ZIKV NS1 (Zika virus, strain ; stand-in …, UniProt A0A146CJG7)
# TEST DESCRIPTION: flow cytometry on cells
READOUT TYPE: percentage of cell staining at 10 ug/ml (%)
Give bare numbers, in %.

Given item mAb 4B8 (IgG) (antibody, V domains shown) VH: EVQLVESGGGLIQPGGSLRLSCAASGFTISSKYMSWVRQAPGKGLEWVSIIYSSGSTYYADSVKGRFTISRDISKNTLYLQMNSLRAEDTAVYYCASLGSGSAFGYWGQGTLVTVSS VL: DIVMTQSPSSVSASVGDRVTITCRASQGISTWLAWYQQKPGKAPRLLIYAASSLQSGVPSRFSGSGSGTDFTLTISSLQPEDFATYYCQQANSFPFTFGPGTKVEIK , the value recorded as its percentage of cell staining at 10 ug/ml is 70
